Values were extracted from ChEMBL document CHEMBL3351293.

molecular target: Cannabinoid receptor 2 (Homo sapiens, UniProt P34972); test: Displacement of [3H] CP-55,940 from human CB2 receptor expressed in HEK cells at 10 uM after 3 hrs by scintillation counting; format: cell-based; conditions: HEK293
Sequence (P34972 whole entry): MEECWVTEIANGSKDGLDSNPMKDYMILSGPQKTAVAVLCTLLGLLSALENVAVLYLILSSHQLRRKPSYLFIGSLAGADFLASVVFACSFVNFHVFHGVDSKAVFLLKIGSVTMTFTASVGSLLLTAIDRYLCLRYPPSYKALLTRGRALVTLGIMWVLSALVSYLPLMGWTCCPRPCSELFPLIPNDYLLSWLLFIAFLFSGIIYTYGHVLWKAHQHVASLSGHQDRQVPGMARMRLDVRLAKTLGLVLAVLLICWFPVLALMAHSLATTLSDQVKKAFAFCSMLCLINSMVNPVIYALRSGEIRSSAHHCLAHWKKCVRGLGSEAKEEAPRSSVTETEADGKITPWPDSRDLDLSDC
measured metric: inhibition (%)
Your answer should be a plain number; it is taken to be in %.

Could you please provide reported inhibition for "Cc1c(C(=O)NCCCCCCCCNC(=O)c2ccc(C(=O)NCCCCCCCCNC(=O)c3nn(-c4ccc(Cl)cc4Cl)c(-c4ccc(Cl)cc4)c3C)cc2)nn(-c2ccc(Cl)cc2Cl)c1-c1ccc(Cl)cc1" ? Thanks!
9.7

Could you please provide reported inhibition for "Cc1c(C(=O)NCCCCCCCN(CCCCCCCNC(=O)c2nn(-c3ccc(Cl)cc3Cl)c(-c3ccc(Cl)cc3)c2C)Cc2ccccc2)nn(-c2ccc(Cl)cc2Cl)c1-c1ccc(Cl)cc1" ? Thanks!
22.6

Could you please provide reported inhibition for "Cc1c(C(=O)NCCCCN)nn(-c2ccc(Cl)cc2Cl)c1-c1ccc(Cl)cc1" ? Thanks!
31.8

Could you please provide reported inhibition for "Cc1c(C(=O)NCCCCCCCCNC(=O)[C@H]2CC[C@@H](C(=O)NCCCCCCCCNC(=O)c3nn(-c4ccc(Cl)cc4Cl)c(-c4ccc(Cl)cc4)c3C)CC2)nn(-c2ccc(Cl)cc2Cl)c1-c1ccc(Cl)cc1" ? Thanks!
27.3

Could you please provide reported inhibition for "Cc1c(C(=O)NCCCCNC(=O)[C@@H]2CCC[C@H](C(=O)NCCCCNC(=O)c3nn(-c4ccc(Cl)cc4Cl)c(-c4ccc(Cl)cc4)c3C)C2)nn(-c2ccc(Cl)cc2Cl)c1-c1ccc(Cl)cc1" ? Thanks!
19.8

Could you please provide reported inhibition for "Cc1c(C(=O)NCCCCCCCCNC(=O)[C@@H]2CCC[C@H](C(=O)NCCCCCCCCNC(=O)c3nn(-c4ccc(Cl)cc4Cl)c(-c4ccc(Cl)cc4)c3C)C2)nn(-c2ccc(Cl)cc2Cl)c1-c1ccc(Cl)cc1" ? Thanks!
10.3

Could you please provide reported inhibition for "Cc1c(C(=O)NCCCCCCNC(=O)c2cccc(C(=O)NCCNC(=O)c3nn(-c4ccc(Cl)cc4Cl)c(-c4ccc(Cl)cc4)c3C)c2)nn(-c2ccc(Cl)cc2Cl)c1-c1ccc(Cl)cc1" ? Thanks!
3.2

Could you please provide reported inhibition for "Cc1c(C(=O)NCCCCNC(=O)c2ccccc2)nn(-c2ccc(Cl)cc2Cl)c1-c1ccc(Cl)cc1" ? Thanks!
25.8

Could you please provide reported inhibition for "Cc1c(C(=O)NCCCCCCCCNC(=O)c2ccccc2)nn(-c2ccc(Cl)cc2Cl)c1-c1ccc(Cl)cc1" ? Thanks!
21.4

Could you please provide reported inhibition for "Cc1c(C(=O)NCCCCNC(=O)c2ccc(C(=O)NCCCCNC(=O)c3nn(-c4ccc(Cl)cc4Cl)c(-c4ccc(Cl)cc4)c3C)cc2)nn(-c2ccc(Cl)cc2Cl)c1-c1ccc(Cl)cc1" ? Thanks!
24.3

Could you please provide reported inhibition for "Cc1c(C(=O)NCCCCCCCCNC(=O)C23CC4CC(C2)CC(C(=O)NCCCCCCCCNC(=O)c2nn(-c5ccc(Cl)cc5Cl)c(-c5ccc(Cl)cc5)c2C)(C4)C3)nn(-c2ccc(Cl)cc2Cl)c1-c1ccc(Cl)cc1" ? Thanks!
4.1

Could you please provide reported inhibition for Cc1c(C(=O)NCCCCNC(=O)[C@H]2CCCC[C@@H]2C(=O)NCCCCNC(=O)c2nn(-c3ccc(Cl)cc3Cl)c(-c3ccc(Cl)cc3)c2C)nn(-c2ccc(Cl)cc2Cl)c1-c1ccc(Cl)cc1 (relative stereo) ? Thanks!
14.6

Could you please provide reported inhibition for "Cc1c(C(=O)NCCCCNC(=O)C23CC4CC(C2)CC(C(=O)NCCCCNC(=O)c2nn(-c5ccc(Cl)cc5Cl)c(-c5ccc(Cl)cc5)c2C)(C4)C3)nn(-c2ccc(Cl)cc2Cl)c1-c1ccc(Cl)cc1" ? Thanks!
15.8

Could you please provide reported inhibition for "Cc1c(C(=O)NCCCCCCCCNC(=O)[C@@H]2CCC[C@@H](C(=O)NCCCCCCCCNC(=O)c3nn(-c4ccc(Cl)cc4Cl)c(-c4ccc(Cl)cc4)c3C)C2)nn(-c2ccc(Cl)cc2Cl)c1-c1ccc(Cl)cc1" ? Thanks!
18.8

Could you please provide reported inhibition for "Cc1c(C(=O)NCCCCCCCCNC(=O)[C@H]2CC[C@H](C(=O)NCCCCCCCCNC(=O)c3nn(-c4ccc(Cl)cc4Cl)c(-c4ccc(Cl)cc4)c3C)CC2)nn(-c2ccc(Cl)cc2Cl)c1-c1ccc(Cl)cc1" ? Thanks!
14.5

Could you please provide reported inhibition for Cc1c(C(=O)NCCCCNC(=O)[C@@H]2CCC[C@@H](C(=O)NCCCCNC(=O)c3nn(-c4ccc(Cl)cc4Cl)c(-c4ccc(Cl)cc4)c3C)C2)nn(-c2ccc(Cl)cc2Cl)c1-c1ccc(Cl)cc1 (relative stereo) ? Thanks!
41.1

Could you please provide reported inhibition for "Cc1c(C(=O)NCCCCCCCCNCc2ccccc2)nn(-c2ccc(Cl)cc2Cl)c1-c1ccc(Cl)cc1" ? Thanks!
93.9

Could you please provide reported inhibition for "Cc1c(C(=O)NCCCCNCc2ccc(C(=O)NCCCCNC(=O)c3nn(-c4ccc(Cl)cc4Cl)c(-c4ccc(Cl)cc4)c3C)cc2)nn(-c2ccc(Cl)cc2Cl)c1-c1ccc(Cl)cc1" ? Thanks!
23

Could you please provide reported inhibition for "Cc1c(C(=O)NCCCCNC(=O)C2CCCCC2)nn(-c2ccc(Cl)cc2Cl)c1-c1ccc(Cl)cc1" ? Thanks!
24.1

Could you please provide reported inhibition for "Cc1c(C(=O)NCCCCNC(=O)[C@H]2CC[C@@H](C(=O)NCCCCNC(=O)c3nn(-c4ccc(Cl)cc4Cl)c(-c4ccc(Cl)cc4)c3C)CC2)nn(-c2ccc(Cl)cc2Cl)c1-c1ccc(Cl)cc1" ? Thanks!
25.9

Could you please provide reported inhibition for "Cc1c(C(=O)NCCCCCCCCNC(=O)C2CCCCC2)nn(-c2ccc(Cl)cc2Cl)c1-c1ccc(Cl)cc1" ? Thanks!
20.2

Could you please provide reported inhibition for Cc1c(C(=O)NCCCCCCCCNC(=O)[C@H]2CCCC[C@@H]2C(=O)NCCCCCCCCNC(=O)c2nn(-c3ccc(Cl)cc3Cl)c(-c3ccc(Cl)cc3)c2C)nn(-c2ccc(Cl)cc2Cl)c1-c1ccc(Cl)cc1 (relative stereo) ? Thanks!
10.5
